MEASURED_TARGET: α1 receptors
TEST_NAME: Affinity for α1 receptors of rats, competition with [^3 H]-prazosin
EXPERIMENTAL_PARAMETERS: frontal cortex of rat, 25° C.
READOUT_NAME: pKi
Keep it numeric: pKi is minus log10 of the concentration in mol/L.

get_value(item= O[C@@H]1c2ccccc2C[C@H]1N1CCN(c2cccc3c2OCCO3)CC1 (relative stereo) , readout=pKi) returns 6.03

The origin of these recorded values is patent US6060487A.
